Biological target: T1, hRET.mmh (human, UniProt P07949 29-635, biotinylated in the ELISA of Example 4 (biot-hRET.mmh); not in the SPR of Example 3)
T1 construct: also called biot-hRET.mmh; soluble monomeric human RET
Assay: SPR Biacore T200, mAb capture, 37 C
Strictly below 0.002 s⁻¹ in koff: true. Otherwise: false.

• H4H8056P (antibody, human IgG4, V domains shown, human IgG4 Fc (H4H prefix)) VH: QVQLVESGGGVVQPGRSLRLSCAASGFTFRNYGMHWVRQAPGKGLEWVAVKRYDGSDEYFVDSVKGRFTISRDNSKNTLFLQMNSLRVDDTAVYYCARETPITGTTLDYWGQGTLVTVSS VL: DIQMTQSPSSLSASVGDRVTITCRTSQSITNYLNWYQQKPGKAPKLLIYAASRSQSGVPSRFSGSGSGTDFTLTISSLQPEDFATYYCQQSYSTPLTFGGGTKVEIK = false
• H4H8058P (antibody, human IgG4, V domains shown, human IgG4 Fc (H4H prefix)) VH: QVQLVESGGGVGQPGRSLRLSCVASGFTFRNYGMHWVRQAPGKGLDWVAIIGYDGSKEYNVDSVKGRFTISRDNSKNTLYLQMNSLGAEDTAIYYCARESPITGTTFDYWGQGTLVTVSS VL: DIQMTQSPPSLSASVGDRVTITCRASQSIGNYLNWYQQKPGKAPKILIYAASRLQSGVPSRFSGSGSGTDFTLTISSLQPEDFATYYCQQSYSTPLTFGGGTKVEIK = false
• H4H8087P (antibody, human IgG4, V domains shown, human IgG4 Fc (H4H prefix)) VH: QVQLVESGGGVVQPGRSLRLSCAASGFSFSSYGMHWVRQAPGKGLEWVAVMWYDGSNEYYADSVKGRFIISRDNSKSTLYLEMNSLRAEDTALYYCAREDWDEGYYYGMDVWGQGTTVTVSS VL: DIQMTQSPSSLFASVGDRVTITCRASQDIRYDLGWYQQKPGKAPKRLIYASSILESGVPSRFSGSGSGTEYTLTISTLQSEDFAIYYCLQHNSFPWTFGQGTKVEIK = true
• H4H8080P (antibody, human IgG4, V domains shown, human IgG4 Fc (H4H prefix)) VH: EVQLVESGGGLVQSGGSLRLSCVASGFTFSTYAMTWVRQAPGRGLEWVSAISGSGASTYYADSLKGRFTVSRDNSKNTLYLQMNSLRAEDTAVYYCSKDHRNYDSDYDMDVWGQGTTVTVSS VL: DIQMTQSPSSLSASVGDRVTITCRASQGIRNYLGWYQQKPGKAPKRLIYTASSLQSGVPSRFRGSGSGTEFTLTISSLQPEDFATYYCLQHNSYPYTFGQGTKLEIK = false
• H4H8060P (antibody, human IgG4, V domains shown, human IgG4 Fc (H4H prefix)) VH: QVTLKESGPVLVKPTETLTLTCTVSGFSLSSARMGVSWIRQPPGKALEWLAHIFSTDEKSYSTSLKSRLSISKDTSLSQVVLIMTNMDPVDTATYYCARRTTMAPYYYYYGMDVWGHGTTVTVSS VL: AIQMTQSPASLSASVGDRVTITCRASQGIRNDLGWYQQKPGKAPKLLISAASSLQSGVPSRFSGSGSGTDFTLTISSLQPEDFATYYCLQDYKYPWTFGQGTKVEIK = true
